System: COR-L23
procedure.summary: relative viability (nuclei count vs DMSO), 5 days (fraction); higher = more cells survive
condition.details: first compound 0.5 µM
Measured relative viability, listed per entry for reference.
Respond numerically, and do not add a unit to the figure.

Guide cases for relative viability, answers given:
COc1cc2nccc(Oc3ccc(NC(=O)Nc4cc(C)on4)c(Cl)c3)c2cc1OC [Tivozanib] + N=C(N)NC(=N)NCCc1ccccc1 [Phenformin] (partner 250 µM)    0.409
COc1cc2nccc(Oc3ccc(NC(=O)Nc4cc(C)on4)c(Cl)c3)c2cc1OC [Tivozanib] + CCNC(=O)c1noc(-c2cc(C(C)C)c(O)cc2O)c1-c1ccc(CN2CCOCC2)cc1 [Luminespib] (partner 0.01 µM)    0.532
COc1cc2nccc(Oc3ccc(NC(=O)Nc4cc(C)on4)c(Cl)c3)c2cc1OC [Tivozanib] + C[C@@H](Oc1cc(-c2cnn(C3CCNCC3)c2)cnc1N)c1c(Cl)ccc(F)c1Cl [Crizotinib] (partner 1 µM)    0.543

Sample COc1cc2nccc(Oc3ccc(NC(=O)Nc4cc(C)on4)c(Cl)c3)c2cc1OC [Tivozanib] + CC(C)C[C@H](NC(=O)[C@H](Cc1ccccc1)NC(=O)c1cnccn1)B(O)O [Bortezomib] (partner 0.002 µM) — what was its relative viability?
0.869

Also check Nc1ccn([C@@H]2O[C@H](CO)[C@@H](O)[C@@H]2O)c(=O)n1 [Cytarabine] + N=C(N)NC(=N)NCCc1ccccc1 [Phenformin] (partner 250 µM)
0.137

Also check COc1cc2nccc(Oc3ccc(NC(=O)Nc4cc(C)on4)c(Cl)c3)c2cc1OC [Tivozanib] + CS(=O)(=O)N1CCN(Cc2cc3nc(-c4cccc5[nH]ncc45)nc(N4CCOCC4)c3s2)CC1 [Pictilisib] (partner 1 µM)
0.565
